// data source = the supplement of paper PMC9233669

Tested on: biotinyl-Val-oxazolone
testSummary: self-aminoacylation, catalytic enhancement (BVO) (fold over background); higher = more active; k-Seq, kA / k0A0; sequences stand for … in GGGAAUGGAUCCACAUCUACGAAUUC…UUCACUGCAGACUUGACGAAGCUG
Fewer inactive variants are shown than the library holds.
measureName: self-aminoacylation

Prompt line: Value lookup for self-aminoacylation; key = AAGUUUGCUAAUAGUCGUAAG [Fam3.1 aminoacylation ribozyme variant]
Response line: 1.05

Prompt line: Report self-aminoacylation for AUUCACCCAGGUCAUCGGGUG [Fam2.2 aminoacylation ribozyme variant] please.
Response line: 3.53

Prompt line: Need self-aminoacylation of AACUUUGAUAAUAGUCGCAAG [Fam3.1 aminoacylation ribozyme variant] , thanks.
Response line: 1.42

Prompt line: Consider the sequence AAUACCCUGGGCAUCGAGUGA [Fam2.1 aminoacylation ribozyme variant] and give its measured self-aminoacylation.
Response line: 2.29

Prompt line: // query self-aminoacylation value for entry AUUCGCCUUGGUCAUCGGGUG [Fam2.2 aminoacylation ribozyme variant]
Response line: 6.21

Prompt line: Quick one: self-aminoacylation for CCACACUUCAUUCAAUCGGUC [Fam1B.1 aminoacylation ribozyme variant] ?
Response line: 0.744

Prompt line: Which measured self-aminoacylation value corresponds to CUACUUCAAGGAAUCGGUCUG [Fam1A.1 aminoacylation ribozyme variant] ?
Response line: 1.42

Prompt line: Suppose we examine the sequence AUUACCUUGCUCAUCGAGUGA [Fam2.1 aminoacylation ribozyme variant] ; what self-aminoacylation value has been reported?
Response line: 1.82

Prompt line: Could you tell me which self-aminoacylation is on file for AUUAACCUGGUCAUCGAAUGA [Fam2.1 aminoacylation ribozyme variant] ?
Response line: 1.07
